Target: Indoleamine 2,3-dioxygenase 1 (Homo sapiens)
Test: Inhibition of human recombinant N-terminus 6X-histidine-tagged indoleamine 2,3-dioxygenase expressed in Escherichia coli assessed as inhibition of L-tryptophan to N-formylkynurenine formation measured as residual enzyme activity incubated for 10 mins prior to substrate addition measured after 30 mins by UV-vis spectrophotometric analysis relative to DMSO-treated control
Sequence (P14902 whole entry): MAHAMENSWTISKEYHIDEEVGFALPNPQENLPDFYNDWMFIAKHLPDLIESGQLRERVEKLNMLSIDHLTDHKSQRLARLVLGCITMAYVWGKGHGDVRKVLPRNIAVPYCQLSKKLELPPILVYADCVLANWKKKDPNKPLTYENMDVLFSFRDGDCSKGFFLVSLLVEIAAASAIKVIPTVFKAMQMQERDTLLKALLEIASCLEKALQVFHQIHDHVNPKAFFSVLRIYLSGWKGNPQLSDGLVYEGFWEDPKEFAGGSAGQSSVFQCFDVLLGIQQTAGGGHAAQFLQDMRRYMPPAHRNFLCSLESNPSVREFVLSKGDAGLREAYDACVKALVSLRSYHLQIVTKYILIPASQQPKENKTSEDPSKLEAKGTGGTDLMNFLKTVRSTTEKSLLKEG
valueKind: pKi
Numbers only, as −log10 of the molar value.

Request: For Nc1c(C(=O)O)c2nc3c(C(=O)O)cccc3oc-2cc1=O [CINNABARINIC ACID] , what is its reported pKi?
Result: 6.49

* * *

Target: UniProtKB P14902
Assay: Inhibition of human recombinant N-terminus 6X-histidine-tagged indoleamine 2,3-dioxygenase expressed in Escherichia coli assessed as inhibition of L-tryptophan to N-formylkynurenine formation measured as residual enzyme activity at 0.1 uM incubated for 10 mins prior to substrate addition measured …
Sequence (P14902 whole entry, looked up): as the sequence (P14902 whole entry) above
valueKind: residual activity
Kindly report the value followed by its unit.

// below: answered molecules
>  <chemicalStructure>
COC(=O)c1c2nc3c(C(=O)OC)cccc3oc-2cc(=O)c1N

>  <residual activity>
94%

$$$$
>  <chemicalStructure>
Nc1cc2nc3ccccc3oc-2cc1=O

>  <residual activity>
82%

$$$$

Quick batch: residual activity for everything below.
1. Nc1cc2nc3cc(CO)ccc3oc-2cc1=O
2. COC(=O)c1c2nc3c(C(=O)OC)ccc(C)c3oc-2c(C)c(=O)c1N
3. CC(=O)Nc1cc2nc3cc(CO)ccc3oc-2cc1=O

Result:
84%
66%
85%

* * *

Molecular target: Indoleamine 2,3-dioxygenase 1 (Homo sapiens, UniProt P14902)
Assay: Inhibition of human recombinant N-terminus 6X-histidine-tagged indoleamine 2,3-dioxygenase expressed in Escherichia coli assessed as inhibition of L-tryptophan to N-formylkynurenine formation measured as residual enzyme activity incubated for 10 mins prior to substrate addition measured after 30 mins by UV-vis spectrophotometric analysis relative to DMSO-treated control
valueKind: pIC50
Answers are plain numbers, as −log10 of the molar value.

Request: For "Nc1c(C(=O)O)c2nc3c(C(=O)O)cccc3oc-2cc1=O" , what is its reported pIC50?
Result: 6.34
